target: FGF-2 (Homo sapiens)
Sequence (P09038 143-288, species assumed): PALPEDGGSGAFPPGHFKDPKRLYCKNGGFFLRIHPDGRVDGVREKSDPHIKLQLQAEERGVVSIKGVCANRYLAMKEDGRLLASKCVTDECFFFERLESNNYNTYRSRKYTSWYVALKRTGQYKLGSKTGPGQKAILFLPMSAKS
measurement-protocol: Competition with biotinylated TS3R domain for binding to immobilized FGF-2 (DELFIA)
applied-conditions: 100 μM; control = 100% binding; average of 3 experiments
Provide the reported % TS3R/FGF-2 binding vs. control of each item.

QUERY: Requested field: % TS3R/FGF-2 binding vs. control. Item: CN(CCCNC(=O)c1nn(-c2ccccc2)c2c1Cc1ccccc1-2)CCCNC(=O)c1nn(-c2ccccc2)c2c1Cc1ccccc1-2 [Compound (2p), reference compound]
RESULT: 96 ± 3%

QUERY: Same question for CN(CCCNC(=O)c1nn(-c2ccc(Cl)cc2Cl)c2c1Cc1ccccc1-2)CCCNC(=O)c1nn(-c2ccc(Cl)cc2Cl)c2c1Cc1ccccc1-2 [Compound (2r), reference compound] please.
RESULT: 98 ± 6%

QUERY: Same question for "O=C(NCCCCCCNC(=O)c1nn(-c2ccc(Cl)cc2Cl)c2c1Cc1cc(S(=O)(=O)O)sc1-2)c1nn(-c2ccc(Cl)cc2Cl)c2c1Cc1cc(S(=O)(=O)O)sc1-2" please.
RESULT: 20 ± 1%

QUERY: Same question for "Cc1ccc(Cn2nc(C(=O)NCCCCCCNC(=O)c3nn(Cc4ccc(C)cc4)c4c3Cc3cc(S(=O)(=O)O)sc3-4)c3c2-c2sc(S(=O)(=O)O)cc2C3)cc1" please.
RESULT: 25 ± 4%

QUERY: Same question for "O=C(NCCCNC(=O)c1nn(-c2ccc(Cl)cc2Cl)c2c1Cc1cc(S(=O)(=O)O)sc1-2)c1nn(-c2ccc(Cl)cc2Cl)c2c1Cc1cc(S(=O)(=O)O)sc1-2" please.
RESULT: 13 ± 3%

QUERY: Same question for O=C(Nc1ccc2cc(S(=O)(=O)O)cc(O)c2c1)Nc1ccc2cc(S(=O)(=O)O)cc(O)c2c1 [sm27, reference compound] please.
RESULT: 17 ± 5%

The measurements presented in this section are drawn from patent US9181196B2.
